Biological target: VCAM-1 (Homo sapiens, UniProt P19320)
Sequence (P19320 25-739): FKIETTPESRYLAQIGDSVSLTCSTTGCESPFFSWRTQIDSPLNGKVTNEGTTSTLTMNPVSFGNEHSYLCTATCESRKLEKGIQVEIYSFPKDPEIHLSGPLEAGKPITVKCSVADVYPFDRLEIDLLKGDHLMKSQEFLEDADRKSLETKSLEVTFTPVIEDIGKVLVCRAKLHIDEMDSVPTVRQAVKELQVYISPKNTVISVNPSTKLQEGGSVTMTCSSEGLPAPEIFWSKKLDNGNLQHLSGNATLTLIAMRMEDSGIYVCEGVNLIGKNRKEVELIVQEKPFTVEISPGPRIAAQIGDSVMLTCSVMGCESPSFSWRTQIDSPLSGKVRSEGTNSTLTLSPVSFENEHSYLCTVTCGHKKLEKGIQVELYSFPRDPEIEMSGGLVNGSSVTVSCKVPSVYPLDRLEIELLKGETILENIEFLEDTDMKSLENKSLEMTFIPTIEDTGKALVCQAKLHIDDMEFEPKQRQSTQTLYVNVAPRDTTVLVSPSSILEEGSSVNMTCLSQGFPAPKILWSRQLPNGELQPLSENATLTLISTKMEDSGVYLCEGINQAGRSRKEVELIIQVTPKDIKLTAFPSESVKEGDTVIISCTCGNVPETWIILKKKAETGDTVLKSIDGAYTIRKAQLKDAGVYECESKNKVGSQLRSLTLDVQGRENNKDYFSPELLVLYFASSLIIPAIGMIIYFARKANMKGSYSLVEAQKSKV
Assay: Transient expression of VCAM-1 in HEK293 cells, Western blot / immunoblot
Settings: transiently transfected HEK293 cells, 48 hours post-transfection, Western blot quantified against β-actin; read-out: concentration inhibiting 50% of VCAM-1 glycoprotein synthesis
pIC50: −log10 of the molar value.
Measured Attribute: pIC50

Molecule	Experimental Result
CCCCC(C)CC1NC(=O)C(Cc2cn(OC)c3ccccc23)N(C)C(=O)C(CC(C)C)NC(=O)C(CC(C)C)N(C)C(=O)C(CC(C)CCCC)NC(=O)C(CCC(=O)OCCC)OC(=O)C(C)N(C)C1=O (stereo not shown)	> 8.30
